The reported numbers originate from ChEMBL document CHEMBL1201862.

Test system: COLO 205
experiment: NCI tumour cell line growth inhibition, 48 h
The source made the active and inactive calls. No stated cut-off is given here; in the data, active = GI50 up to about 1.1 µM and inactive = higher.
Hi! Could you answer with just one of these? 1 for active, 0 for inactive

Asked: Please state the recorded outcome for this molecule: `COc1ccc(C=O)cc1Oc1ccc(C[C@H]2c3c(cc(OC)c4c3Oc3cc5c(cc3O4)CCN(C)C5=O)CCN2C)cc1`
Given back: 0

Asked: What about `CN(C)CCNC(=O)c1cc([N+](=O)[O-])ccn1` ?
Given back: 0

Asked: Then CN(CCC(=O)N1CC(CCl)c2ccc([N+](=O)[O-])cc21)CCC(=O)N1CC(CCl)c2ccc([N+](=O)[O-])cc21 (stereo unspecified) ?
Given back: 0

Asked: Further, for `N#Cc1c(-c2ccc(Cl)cc2)cc(-c2ccc(Nc3ccnc4cc(Cl)ccc34)cc2)[nH]c1=O` ?
Given back: 0

Asked: Queued: `COc1ccc(/C=C2\N=C3N(Cc4ccccc4)C=C(N)N3C2=O)cc1`
Given back: 0

Asked: Next molecule up: `CC1=C2C(=C[C@H]3[C@]4(C)CCCC(C)(C)[C@H]4CC[C@]34O[C@H]24)OC1=O`
Given back: 0

Asked: Could you do the same for O=C(c1ccccc1)N1CCC(Nc2nccs2)O1 (stereo unspecified) , please?
Given back: 0

Asked: Also O=C1CSC(c2ccccc2)N1c1ccc(-c2ccc(-n3c(-c4ccccc4)nc4ccccc4c3=O)cc2)cc1 (stereo unspecified) ?
Given back: 0

Asked: Subsequent entry: COC(=O)C(=O)C(C(=O)C(=O)Nc1ccc(C)cc1C)c1nc2ccc(Cl)cc2nc1O (stereo unspecified)
Given back: 0

Asked: # repeat for `N#Cc1c(N2CCOCC2)ncn(-c2ccccc2)c1=O`
Given back: 0

Asked: CCCN(CCCCN1C(=O)c2ccccc2C1=O)CC1COc2ccccc2O1 (stereo unspecified) , same question.
Given back: 0

Asked: Consider next the molecule COc1cccc(NC(=O)CC(=O)N2N=C(N(CCC#N)c3ccc(Cl)cc3)CC2c2ccccc2)c1 (stereo unspecified) in the same way.
Given back: 0

Asked: Moving on to `CC1(C)CCc2c(cc3c(c2O)CCC(C)(C)O3)O1`
Given back: 0

Asked: Entry to check: `Clc1ccc(/C=C/c2csnn2)cc1`
Given back: 0

Asked: Subsequent entry: OCC(O)C(O)C(O)c1nnn[nH]1 (stereo unspecified)
Given back: 0

Asked: Now this one: `NCCNc1nc(N2CCCC2)c2nc(Cl)c(NCc3ccccc3)nc2n1`
Given back: 0

Asked: Try this molecule too: `CN(CC(=O)O)S(=O)(=O)c1ccc(F)cc1`
Given back: 0

Asked: Let us now turn to `CC(=O)OC(=O)O/C=C\CCl`
Given back: 0

Asked: Would you mind doing CC(NNC(=O)c1cc[n+]([BH2-]C#N)cc1)c1ccc(F)cc1 (stereo unspecified) as well?
Given back: 0

Asked: Repeat for the following molecule: Cn1c2ccccc2c(=O)c2c(O)cc3c(c21)C=CC(C)(C)O3 [NORACRONYCINE]
Given back: 0

Asked: CC(=O)Oc1ccccc1C(=O)O [ASPIRIN] ?
Given back: 0

Asked: Again, but for O=C(c1ccccc1)c1ccc2nc3n(c2c1)C(c1c(F)cccc1F)SC3 (stereo unspecified)
Given back: 0

Asked: Likewise for `COc1ccc(/N=N/c2c(-c3c(OC)cc4occc4c3OC)[nH]c(=O)c(C#N)c2C)cc1` ?
Given back: 0

Asked: Entry to check: C[C@@H](CC(=O)OCc1ccccc1)OC1OC(COC(=O)C(C)(C)C)C(OC(=O)C(C)(C)C)C(OC(=O)C(C)(C)C)C1OC(=O)C(C)(C)C (stereo partly specified)
Given back: 0

Asked: // repeat for `C[C@H]1S[C@H](c2c(F)cccc2F)n2c1nc1ccccc12` and report
Given back: 0

Asked: Repeat with CCCCC(C(=O)CCC(=O)Nc1ccc(Cl)cc1)C(=O)C(C)C (stereo unspecified)
Given back: 0

Asked: Okay, and OC1(c2ccccc2)CSc2ncnn21 (stereo unspecified) ?
Given back: 0

Asked: Further, for Cc1ccc([S+]([O-])(=Nc2ccccc2)C(C(C)C)C(C)(C)Cl)cc1 (stereo unspecified) ?
Given back: 1

Asked: Now try `COc1ccc(/C=N/n2c(-c3ccccc3)n[nH]c2=O)cc1` .
Given back: 0

Asked: // query: CCO/S(=N/S(=O)(=O)c1ccccc1)c1ccccc1[N+](=O)[O-] (stereo unspecified)
Given back: 0

Asked: Please answer likewise for `Sc1nn2c(COc3cc(Cl)c(OCc4nnc5sc(S)nn45)cc3Cl)nnc2s1`
Given back: 0

Asked: Next molecule: `COC(=O)Cc1c(C(=O)CC(C)(C)n2cnc(CCN3C(=O)CCC3=O)c2)[nH]c2ccccc12`
Given back: 0

Asked: Consider next the molecule CC1NC(C(=O)O)Cc2cc(O)c(O)cc21 (stereo unspecified) in the same way.
Given back: 0

Asked: Please do the same for Cc1ccc(-c2nc3ccccc3c(=O)n2NCC2(O)OCC(O)C(O)C2O)cc1 (stereo unspecified) as well.
Given back: 0

Asked: Likewise for `O=C1c2ccc3c4ccc5c6c(ccc(c7ccc(c2c37)C(=O)N1CCN1CCCCC1)c64)C(=O)N(CCN1CCCCC1)C5=O` ?
Given back: 0

Asked: Same again, this time with `CC(C)c1ccc(C(c2ccc(OCC(=O)O)cc2)c2ccc(C(C)C)cc(=O)c2O)c(O)c(=O)c1`
Given back: 0
